Recorded IC50 values for a group of molecules are listed next.
biological target: 3',5'-Cyclic AMP Phosphodiesterase (PDE); assay: Inhibition of 3',5'-cyclic AMP phosphodiesterase (PDE) isolated from rabbit kidney, low affinity (Fraction I, high Km); assay type: biochemical; details: cAMP approx. 5 × 10^-4 M, read-out: I50

Known IC50 results, listed for orientation:
Molecule	Experimental target	IC50
CCCc1nc(C)cc2nc(N)nn12 [COMPOUND 1]	3',5'-Cyclic AMP Phosphodiesterase (PDE)	1600 µM
Cc1cc(C)n2nccc2n1 [H, 5,7-dimethyl pyrazolo[1,5-a]pyrimidine, reference compound]	3',5'-Cyclic AMP Phosphodiesterase (PDE)	800 µM
Cc1cc(C)n2ncc(Br)c2n1 [Example I]	3',5'-Cyclic AMP Phosphodiesterase (PDE)	100 µM
Cc1cc(C)n2ncc(I)c2n1 [III]	3',5'-Cyclic AMP Phosphodiesterase (PDE)	130 µM

Respond only with IC50 recorded for CCOC(=O)c1cnn2c(C)cc(C)nc12 [COOC2 H5]
1000 µM

Fill in IC50 for record Cc1cc(C)n2ncc(Cl)c2n1 [II]
240 µM

All figures here come from patent US4093617A.
